Target: KDM5A (Homo sapiens)
Construct: Full length KDM5A enzyme was expressed and purified inhouse; made in house
Sequence (P29375 whole entry): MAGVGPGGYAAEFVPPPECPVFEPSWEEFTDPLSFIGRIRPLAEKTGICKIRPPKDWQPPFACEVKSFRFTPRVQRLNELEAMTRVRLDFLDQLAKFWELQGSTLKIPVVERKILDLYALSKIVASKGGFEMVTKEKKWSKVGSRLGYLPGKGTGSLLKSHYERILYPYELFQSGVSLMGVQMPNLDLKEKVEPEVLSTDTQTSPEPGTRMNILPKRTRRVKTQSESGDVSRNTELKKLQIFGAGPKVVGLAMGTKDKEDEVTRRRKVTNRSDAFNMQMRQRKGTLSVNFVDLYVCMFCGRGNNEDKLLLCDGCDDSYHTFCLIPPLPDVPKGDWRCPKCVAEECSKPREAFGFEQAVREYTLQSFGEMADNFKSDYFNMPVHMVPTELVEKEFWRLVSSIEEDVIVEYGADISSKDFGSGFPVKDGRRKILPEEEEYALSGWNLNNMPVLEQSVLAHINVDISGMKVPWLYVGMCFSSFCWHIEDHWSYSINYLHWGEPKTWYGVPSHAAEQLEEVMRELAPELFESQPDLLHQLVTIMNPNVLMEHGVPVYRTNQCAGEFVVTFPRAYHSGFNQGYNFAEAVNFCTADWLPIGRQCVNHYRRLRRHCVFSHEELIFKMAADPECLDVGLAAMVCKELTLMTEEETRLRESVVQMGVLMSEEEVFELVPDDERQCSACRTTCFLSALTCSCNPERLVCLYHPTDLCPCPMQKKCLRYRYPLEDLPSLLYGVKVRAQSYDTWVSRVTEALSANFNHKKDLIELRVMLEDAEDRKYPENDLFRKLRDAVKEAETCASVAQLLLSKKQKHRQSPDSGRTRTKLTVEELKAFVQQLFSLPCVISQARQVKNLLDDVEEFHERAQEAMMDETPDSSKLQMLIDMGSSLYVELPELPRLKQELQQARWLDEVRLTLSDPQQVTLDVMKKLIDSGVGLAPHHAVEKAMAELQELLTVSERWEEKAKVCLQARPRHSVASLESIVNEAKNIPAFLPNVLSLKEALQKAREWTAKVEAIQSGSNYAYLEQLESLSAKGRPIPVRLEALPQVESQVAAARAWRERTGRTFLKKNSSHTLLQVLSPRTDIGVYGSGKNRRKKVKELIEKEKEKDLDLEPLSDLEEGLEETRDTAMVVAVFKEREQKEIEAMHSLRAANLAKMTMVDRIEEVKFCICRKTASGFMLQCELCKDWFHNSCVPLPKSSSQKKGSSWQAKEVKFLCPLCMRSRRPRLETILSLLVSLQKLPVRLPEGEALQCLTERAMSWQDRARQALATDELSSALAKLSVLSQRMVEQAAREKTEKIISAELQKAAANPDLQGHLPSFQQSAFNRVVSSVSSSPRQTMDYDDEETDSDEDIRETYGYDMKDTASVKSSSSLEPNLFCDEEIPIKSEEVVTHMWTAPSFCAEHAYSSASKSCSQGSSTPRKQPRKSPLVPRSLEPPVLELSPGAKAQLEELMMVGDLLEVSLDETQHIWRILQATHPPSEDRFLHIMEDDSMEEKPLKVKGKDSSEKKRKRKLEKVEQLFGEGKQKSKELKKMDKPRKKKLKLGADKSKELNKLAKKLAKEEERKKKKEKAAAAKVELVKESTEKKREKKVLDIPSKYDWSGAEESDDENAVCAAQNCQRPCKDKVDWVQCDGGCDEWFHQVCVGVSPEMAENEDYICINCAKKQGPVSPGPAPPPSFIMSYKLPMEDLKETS
Assay: KDM5 enzyme assay, KDM5A HTRF (Example 463)
Assay type: biochemical
Conditions: compounds of Examples 1-432; read-out: Example 463 Assay KDM5A HTRF IC50
observation-type: IC50 (nM)

Some solved entries appear below for comparison.
query-smiles: CCn1ccc(-c2[nH]c3c(C#N)cnn3c(=O)c2C(C)C)n1
observation-type: IC50
experimental-value: 23
//
query-smiles: CC(C)n1cc(-c2[nH]c3c(C#N)cnn3c(=O)c2C2CCC2)cn1
observation-type: IC50
experimental-value: 21

I = CC(C)c1c(-c2cccc(CN3CCOCC3)c2)[nH]c2c(C#N)cnn2c1=O
II = CC(C)c1c(-c2ccc(C(F)(F)F)cc2)n(C)c2c(C#N)cnn2c1=O
q: Out of I and II , name the one with the higher IC50. Write down the label attached to your selection.
a: II

A = CC(C)c1c(-c2ccn(CCC3CC3)n2)[nH]c2c(C#N)cnn2c1=O
B = CC(C)c1c(-c2ccn[nH]2)n(C)c2c(C#N)cnn2c1=O
C = C=Cc1[nH]c2c(C#N)cnn2c(=O)c1C(C)C
q: Order these by IC50, descending, and give the full ranking. Lab note: final answer is the ordered label list.
a: B, A, C
(B: 37 nM, A: 13 nM, C: 6 nM)

Each recorded value in this set is attributed to patent US10035801B2.
